# target of assay: T1, Plasmodium berghei HAP2 domain 3 (P. berghei)
# T1 chain: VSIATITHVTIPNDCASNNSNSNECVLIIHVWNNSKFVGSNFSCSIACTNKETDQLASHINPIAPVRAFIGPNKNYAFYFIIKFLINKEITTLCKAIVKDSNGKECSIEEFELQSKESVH
# assay remarks: BLI
Record form. Attribute: Kd. Fill in for each entry.
Give bare numbers, in nM.

Solved cases (3 shown):
- binder: "WNbFc 333 (nanobody WNb 333 fused to hinge and Fc of human IgG1) (Fc fusion) QVQLQESGGGSVQPGGSLRLSCAASGFTLEDYAIGWFRQAPGKGREGISCISSTDGSTHYADSAKGRFTISRDDAKNTAYLQMNSLKVEDTDVYYCAALSQEHMITVQRMCAVPAAHYWGRGTQVTVSS"
  Kd / nM: 3650
- binder: "anti-PbHAP2 D3 mAb 6.14 (variable regions in AbVec-hIgG1 and AbVec-IgKappa) (antibody, V domains shown) VH: EVQLVESGGGLVKPGGSLKLSCAASEFTFSDYGMHWVRQAPEKGLEWVASISSGSNSIYYSDTVKGRFTISRDNAKSILFLQMTSLRSEDTAMYYCSREAYFAMDYWGQGTSVTVSS VL: DIQMTQSPSSLSAILGGKVTITCKASQDIHKYIAWYQHKPGKGPRLLIYYTSTLQPGIPSRFSGSGSGRDYSFSISNLEPEDVATYFCLQYDNLYTFGGGTKVEIE"
  Kd / nM: 12.1
- binder: "anti-PbHAP2 D3 mAb 1.12 (variable regions in AbVec-hIgG1 and AbVec-IgKappa) (antibody, V domains shown) VH: EFQLLQSGPELVKPGASVKISCKASDYSLSDYNMNWVRQRSGKSLEWIGVINPNHGTTHYNQKFKGKATLTVDQSSSTAYMQLTSLTSEDSAVYYCASPIHYGNHVPFDYWGQGTTVTVSS VL: DIQMTQTTSSLSASLGDRVTISCRTGQDISNYLNWYQQKPDGTVKLLIYFTSRLHSGVPSRFSGSGSGTDYSLTISNLEQEDIATYFCQQGITLPWTFGGGTKLEIK"
  Kd / nM: 5.1

Consider the additional binder presented here.
Lookup result for WNbFc 334 (nanobody WNb 334 fused to hinge and Fc of human IgG1) (Fc fusion) QVQLQESGGGLVQPGGSLRLSCAASGFTLDDYAIGWFRQDPGKGREGVSCISLSDGSTYYADAVTGRFTISRDNAKDTVYLQMNSLKPEDTAVYYCAALSQKQMTTVQAMCAVPIANYWGQGTQVTVSS ; measured Kd: 1440
